- test.target: T1, soluble human FcRn (human, UniProt P55899 24-297; P61769 21-119, biotinylated (Sulfo-NHS-LC-Biotin) in the ELISA; amine-coupled to CM5 chip in SPR)
- T1 construct: also called shFcRn; biotinylated shFcRn
- test: ELISA, competitor human IgG
pIC50: −log10 of the molar value.
quantity: pIC50

binder="QRFXTGHFFGLYPCNGP (Pen at 4; D-Phe at 9; NMeLeu at 11; disulfide; C-terminal amide) [Peptide No. 153]" quantity=pIC50 readout_value=5.89

(a) QRFXTGHFGPLYPCNGP (Pen at 4; D-Pro at 10; disulfide; C-terminal amide) [Peptide No. 40]
(b) QRFXTGHFHGLYPCNGP (Pen at 4; D-His at 9; disulfide; C-terminal amide) [Peptide No. 50]
Between a and b , which one shows the larger pIC50 value? # answer = label of selected item a
(a: 5.85, b: 5.44)
